Entries and their measured inhibition at 1.235 µM follow.
# assay.system: purified human HDAC6 (Homo sapiens, UniProt Q9UBN7)
# Construct: purchased BPS Bioscience 5006
# Sequence (Q9UBN7 1-1215): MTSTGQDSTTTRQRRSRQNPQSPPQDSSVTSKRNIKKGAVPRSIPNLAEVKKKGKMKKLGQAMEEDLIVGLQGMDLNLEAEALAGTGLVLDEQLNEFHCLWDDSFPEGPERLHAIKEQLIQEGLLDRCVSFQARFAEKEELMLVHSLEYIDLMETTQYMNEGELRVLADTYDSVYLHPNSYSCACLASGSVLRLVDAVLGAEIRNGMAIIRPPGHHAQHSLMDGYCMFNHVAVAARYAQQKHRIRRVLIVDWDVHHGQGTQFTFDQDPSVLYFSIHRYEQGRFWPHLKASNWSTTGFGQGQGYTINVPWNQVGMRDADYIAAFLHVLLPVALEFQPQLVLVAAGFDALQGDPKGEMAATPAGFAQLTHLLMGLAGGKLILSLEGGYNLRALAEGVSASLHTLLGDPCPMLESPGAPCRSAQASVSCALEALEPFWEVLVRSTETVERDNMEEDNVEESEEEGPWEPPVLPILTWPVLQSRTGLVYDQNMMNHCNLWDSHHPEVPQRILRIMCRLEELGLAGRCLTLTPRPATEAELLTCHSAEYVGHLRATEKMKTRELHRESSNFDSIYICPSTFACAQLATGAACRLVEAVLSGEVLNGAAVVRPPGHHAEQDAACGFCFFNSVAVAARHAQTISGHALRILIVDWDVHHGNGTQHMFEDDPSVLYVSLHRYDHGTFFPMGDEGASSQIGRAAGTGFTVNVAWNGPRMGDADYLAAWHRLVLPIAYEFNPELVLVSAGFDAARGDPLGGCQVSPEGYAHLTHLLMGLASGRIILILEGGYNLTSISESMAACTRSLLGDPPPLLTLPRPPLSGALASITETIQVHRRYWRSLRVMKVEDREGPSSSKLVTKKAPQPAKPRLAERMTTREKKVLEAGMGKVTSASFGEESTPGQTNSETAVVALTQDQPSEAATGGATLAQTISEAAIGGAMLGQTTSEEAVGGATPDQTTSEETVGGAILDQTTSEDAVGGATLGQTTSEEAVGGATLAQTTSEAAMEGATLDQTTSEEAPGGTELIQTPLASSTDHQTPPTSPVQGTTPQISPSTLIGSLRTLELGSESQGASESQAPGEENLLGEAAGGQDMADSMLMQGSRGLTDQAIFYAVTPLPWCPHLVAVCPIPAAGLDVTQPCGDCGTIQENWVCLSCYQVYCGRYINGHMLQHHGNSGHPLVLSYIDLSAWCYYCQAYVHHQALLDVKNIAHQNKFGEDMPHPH
# assay.explanation: HDAC6 Enzyme Assay
# Format: biochemical
# setup.conditions: test compound at 1.235 μM; substrate Ac-Arg-Gly-Lys(Ac)-AMC, 1 hour at 30° C.; read-out: Percent Inhibition at 1.235 μM
# value in %; strip the unit string

>>> test_result("O=C(NO)c1ccc2c(n1)CCN(C(=O)Nc1ccccc1-c1ccccc1)C2")
48.2
>>> test_result("Cc1nc(-c2ccccn2)sc1C(=O)N1CCc2nc(C(=O)NO)ccc2C1")
81.4
>>> test_result("CC(C)(C)NC(=O)N1CCc2nc(C(=O)NO)ccc2C1")
39
>>> test_result("O=C(NO)c1cnc2c(c1)CN(C(=O)c1ccc(-c3ccccc3)cc1)CC2")
96.9
>>> test_result("O=C(NO)c1cnc2c(c1)CN(C(=O)c1cc3ccccc3o1)CC2")
94.9

Record request: inhibition at 1.235 µM value, item `CC1(C(=O)N2CCc3ncc(C(=O)NO)cc3C2)CCCCC1`
93

Which inhibition at 1.235 µM reading was recorded for the molecule `Cc1ccccc1NC(=O)N1CCc2nc(C(=O)NO)ccc2C1` ?
40.4

Please look up its inhibition at 1.235 µM: `CC(=O)N1CCc2nc(C(=O)NO)ccc2C1`
34.1

Please report the recorded inhibition at 1.235 µM for `O=C(NO)c1ccc2c(n1)CCN(C(=O)Nc1ccc(-c3ccccc3)s1)C2` .
67.2
